Assayed system: T1, recombinant human IGF-II (Insulin-like Growth Factor II) (human, UniProt P01344 25-91, biotinylated (Biotinyl-IGF-II, GroPep) where immobilised in SPR, site not stated; not biotinylated in ITC and as SPR analyte)
T1 construct: also called IGF2; IGF-2
T1 sequence (P01344 25-91 limits assumed): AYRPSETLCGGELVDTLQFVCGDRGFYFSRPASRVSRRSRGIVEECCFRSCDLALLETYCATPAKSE
Protocol details: SPR, IGF-II immobilised, kinetic fit
Labelling field: enter Fulfilled if recorded Kd is less than 100 nM. Enter Not fulfilled if it equals or exceeds that cut-off.

IGF2R domain 11 E1544V (amino acids 1511-1650, C-terminal His6 tag, from Pichia pastoris) (receptor) NEHDDCQVTNPSTGHLFDLSSLSGRAGFTAAYSVKGLVYMSICGENENCPPGVGACFGQTRISVGKANKRLRYVDQVLQLVYKDGSPCPSKSGLSYKSVISFVCRPEAGPTNRPMLISLDKQTCTLFFSWHTPLACEQATHHHHHH: Fulfilled
IGF2R domain 11 with histidine at position 1544 (E1544H) (receptor) NEHDDCQVTNPSTGHLFDLSSLSGRAGFTAAYSHKGLVYMSICGENENCPPGVGACFGQTRISVGKANKRLRYVDQVLQLVYKDGSPCPSKSGLSYKSVISFVCRPEAGPTNRPMLISLDKQTCTLFFSWHTPLACEQATHHHHHH: Fulfilled
IGF2R domain 11 with glycine at position 1544 (E1544G) (receptor) NEHDDCQVTNPSTGHLFDLSSLSGRAGFTAAYSGKGLVYMSICGENENCPPGVGACFGQTRISVGKANKRLRYVDQVLQLVYKDGSPCPSKSGLSYKSVISFVCRPEAGPTNRPMLISLDKQTCTLFFSWHTPLACEQATHHHHHH: Not fulfilled
IGF2R domain 11 with asparagine at position 1544 (E1544N) (receptor) NEHDDCQVTNPSTGHLFDLSSLSGRAGFTAAYSNKGLVYMSICGENENCPPGVGACFGQTRISVGKANKRLRYVDQVLQLVYKDGSPCPSKSGLSYKSVISFVCRPEAGPTNRPMLISLDKQTCTLFFSWHTPLACEQATHHHHHH: Not fulfilled
wild type IGF2R domain 11 (amino acids 1511-1650) with C-terminal His6 tag, from Pichia pastoris (receptor, also called WT; wild type domain 11) NEHDDCQVTNPSTGHLFDLSSLSGRAGFTAAYSEKGLVYMSICGENENCPPGVGACFGQTRISVGKANKRLRYVDQVLQLVYKDGSPCPSKSGLSYKSVISFVCRPEAGPTNRPMLISLDKQTCTLFFSWHTPLACEQATHHHHHH: Not fulfilled
